# tested-system: KDR (human, UniProt P35968 20-1356)
# Sequence (P35968 20-1356): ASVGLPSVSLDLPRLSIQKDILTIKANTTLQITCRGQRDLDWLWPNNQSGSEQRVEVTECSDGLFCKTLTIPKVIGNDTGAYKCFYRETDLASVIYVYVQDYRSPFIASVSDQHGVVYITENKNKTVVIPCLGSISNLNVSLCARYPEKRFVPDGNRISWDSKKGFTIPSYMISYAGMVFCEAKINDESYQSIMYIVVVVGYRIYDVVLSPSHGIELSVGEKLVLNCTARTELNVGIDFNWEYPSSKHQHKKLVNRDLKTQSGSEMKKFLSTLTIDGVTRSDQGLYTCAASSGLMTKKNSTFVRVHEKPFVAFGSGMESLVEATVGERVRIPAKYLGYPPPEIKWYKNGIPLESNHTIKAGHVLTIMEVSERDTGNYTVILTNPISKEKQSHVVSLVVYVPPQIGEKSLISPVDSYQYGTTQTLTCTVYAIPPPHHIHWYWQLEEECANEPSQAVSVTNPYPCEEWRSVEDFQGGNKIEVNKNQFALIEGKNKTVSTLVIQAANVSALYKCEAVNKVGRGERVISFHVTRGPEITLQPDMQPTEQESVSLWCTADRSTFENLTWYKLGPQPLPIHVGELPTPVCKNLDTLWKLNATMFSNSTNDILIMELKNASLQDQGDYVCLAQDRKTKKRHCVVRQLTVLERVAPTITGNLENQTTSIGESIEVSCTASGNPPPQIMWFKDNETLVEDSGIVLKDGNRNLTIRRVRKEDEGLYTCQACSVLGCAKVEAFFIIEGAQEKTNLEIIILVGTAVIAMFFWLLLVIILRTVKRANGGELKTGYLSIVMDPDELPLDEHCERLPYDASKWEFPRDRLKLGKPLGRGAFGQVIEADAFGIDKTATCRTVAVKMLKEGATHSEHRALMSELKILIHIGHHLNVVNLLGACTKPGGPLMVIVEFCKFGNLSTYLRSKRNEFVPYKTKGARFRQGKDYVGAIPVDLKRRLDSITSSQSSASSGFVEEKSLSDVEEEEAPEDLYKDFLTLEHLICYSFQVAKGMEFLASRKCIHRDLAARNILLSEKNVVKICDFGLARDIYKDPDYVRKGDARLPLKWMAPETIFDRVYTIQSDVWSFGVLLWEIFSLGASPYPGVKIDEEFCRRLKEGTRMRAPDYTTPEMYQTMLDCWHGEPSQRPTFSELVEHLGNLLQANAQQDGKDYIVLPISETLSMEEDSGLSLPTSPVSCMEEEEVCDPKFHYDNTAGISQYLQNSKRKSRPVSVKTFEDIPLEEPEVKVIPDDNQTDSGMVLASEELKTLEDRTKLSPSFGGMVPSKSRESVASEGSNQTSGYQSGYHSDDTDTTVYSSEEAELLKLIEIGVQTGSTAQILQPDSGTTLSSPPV
# assay-explanation: cell-based or functional assay
# % of Max VEGF KDR pTyr Activity (at 133 nM antibody concentration), Average per record follows
metric-name: % of Max VEGF KDR pTyr Activity (at 133 nM antibody concentration), Average (%)

binder	value-measured
21H6 (antibody, V domains shown) VH: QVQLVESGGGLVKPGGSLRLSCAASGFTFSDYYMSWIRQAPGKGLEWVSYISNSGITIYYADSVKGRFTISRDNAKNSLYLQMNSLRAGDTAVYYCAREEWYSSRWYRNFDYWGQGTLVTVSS VL: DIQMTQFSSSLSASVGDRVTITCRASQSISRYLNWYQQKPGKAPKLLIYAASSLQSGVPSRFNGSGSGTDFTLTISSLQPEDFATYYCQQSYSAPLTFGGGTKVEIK	11
33C3 (antibody, V domains shown) VH: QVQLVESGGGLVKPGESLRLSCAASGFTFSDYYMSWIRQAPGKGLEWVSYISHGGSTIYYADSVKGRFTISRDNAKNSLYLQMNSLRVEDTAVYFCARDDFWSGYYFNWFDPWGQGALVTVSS VL: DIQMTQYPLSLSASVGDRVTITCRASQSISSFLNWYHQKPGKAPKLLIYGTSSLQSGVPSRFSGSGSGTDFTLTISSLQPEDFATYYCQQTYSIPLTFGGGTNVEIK	8
29A3 (antibody, V domains shown) VH: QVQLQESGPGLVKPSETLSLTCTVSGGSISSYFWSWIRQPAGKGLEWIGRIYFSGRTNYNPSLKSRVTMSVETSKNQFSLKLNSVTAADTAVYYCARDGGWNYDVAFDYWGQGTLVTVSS VL: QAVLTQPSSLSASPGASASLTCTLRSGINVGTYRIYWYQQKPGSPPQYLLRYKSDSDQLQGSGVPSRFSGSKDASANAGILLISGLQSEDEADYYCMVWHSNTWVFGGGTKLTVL	16
